# PROTOCOL_SUMMARY: In vitro mouse hepatocyte stability
# Assay type: in vitro ADME
# CONDITION_INFO: mouse, hepatocytes
MEASUREMENT_TYPE: hepatocyte CLint (µL/min/1e6 cells)
Numeric only. Scale: µL/min/1e6 cells

Which measured hepatocyte CLint value corresponds to CC(C)C(Nc1ncnc2[nH]c(C(=O)NC3CCN(C)C3)cc12)c1ccc2c(c1)S(=O)(=O)CCC2 (stereo not shown) [ASAP-0011198] ?
68.4

---

# PROTOCOL_SUMMARY: Hepatic microsomal stability, MLM
# Assay type: in vitro ADME
# CONDITION_INFO: In vitro mouse liver microsomal stability, no cofactor
MEASUREMENT_TYPE: perc_remaining_no_cofactor (%)
Numeric only. Scale: %

{"COMPOUND": "CC(C)[C@@H](Nc1ncnc2[nH]c(-c3ccc4cncn4c3)cc12)c1ccc2c(c1)S(=O)(=O)CCC2 [ASAP-0011215]", "MEASURED_VALUE": 87.0}
{"COMPOUND": "CCNC(=O)c1cc2c(N[C@@H](c3ccc4c(c3)S(=O)(=O)CCO4)C(C)C)ncnc2[nH]1 (racemic) [ASAP-0012317]", "MEASURED_VALUE": 99.0}

Which measured perc_remaining_no_cofactor value corresponds to CCNC(=O)c1cc2c(N[C@H](c3ccc4c(c3)OCCO4)C(C)C)ncnc2[nH]1 [ASAP-0013824] ?
94.0

Which measured perc_remaining_no_cofactor value corresponds to CC(C)[C@H](Nc1ncnc2[nH]c(-c3cnn(C)c3)cc12)c1ccc2c(c1)S(=O)(=O)CCC2 (single isomer, unassigned) [ASAP-0012327] ?
98.0
